Test system: alpha-glucosidase (Sigma)
Assay: Test of alpha-glucosidase inhibitory effect
Type: biochemical
Conditions: 0.01 ml of 10 mg/ml sample; 50 U/ml alpha-glucosidase; 5 mM p-nitrophenyl-α-D-glucopyranoside, 37° C., 5 minutes; absorbance at 405 nm; untreated group = 100.0
Measured Quantity: Activity inhibition (%)
Numbers only, in %.

Hey, quick one: what's Activity inhibition (%) for each of these?
1. COc1ccc(-c2oc3c(CC=C(C)C)c(O)cc(O)c3c(=O)c2O[C@@H]2O[C@H](C)[C@@H](O)[C@H](O)[C@@H]2O)cc1 [Example 3, icariside II]
2. COc1ccc(-c2oc3c(CC=C(C)C)c(O)cc(O)c3c(=O)c2O[C@@H]2O[C@H](C)[C@@H](O)[C@H](O)[C@@H]2O)cc1 [Example 5, icariside II]
3. OC[C@H]1NC[C@H](O)[C@@H](O)[C@@H]1O [Deoxynojirimycin, deoxynojirimycin, reference compound]

[37.5, 37.8, 41.1]

###

Give measured Activity inhibition (%) for each item. Keep answers brief.
System: alpha-glucosidase (Sigma)
Test: Test of alpha-glucosidase inhibitory effect
Type: biochemical
Details: 0.01 ml of 10 mg/ml sample; 50 U/ml alpha-glucosidase; 5 mM p-nitrophenyl-α-D-glucopyranoside, 37° C., 5 minutes; absorbance at 405 nm; untreated group = 100.0
Numbers only, in %.

Here are 4 molecules. What values of Activity inhibition (%) were reported for them?
1. COc1ccc(-c2oc3c(CC=C(C)C)c(O)cc(O)c3c(=O)c2O[C@@H]2O[C@H](C)[C@@H](O)[C@H](O)[C@@H]2O)cc1 [Example 2, icariside II]
2. COc1ccc(-c2oc3c(CC=C(C)C)c(O[C@@H]4O[C@H](CO)[C@@H](O)[C@H](O)[C@H]4O)cc(O)c3c(=O)c2O[C@@H]2O[C@@H](C)[C@H](O)[C@@H](O)[C@H]2O)cc1 [Icariin, icariin, reference compound]
3. COc1ccc(-c2oc3c(CC=C(C)C)c(O)cc(O)c3c(=O)c2O[C@@H]2O[C@H](C)[C@@H](O)[C@H](O)[C@@H]2O)cc1 [Example 1, icariside II]
4. COc1ccc(-c2oc3c(CC=C(C)C)c(O)cc(O)c3c(=O)c2O[C@@H]2O[C@H](C)[C@@H](O)[C@H](O)[C@@H]2O)cc1 [Example 4, icariside II]

1: 38.8; 2: 98.8; 3: 38.2; 4: 37.9
